# target_or_test_system: human IgE (Diatec, Oslo, Norway) (human, UniProt P01854-1 1-428)
# Sequence (P01854 other isoform, or with tags, fused parts or gaps): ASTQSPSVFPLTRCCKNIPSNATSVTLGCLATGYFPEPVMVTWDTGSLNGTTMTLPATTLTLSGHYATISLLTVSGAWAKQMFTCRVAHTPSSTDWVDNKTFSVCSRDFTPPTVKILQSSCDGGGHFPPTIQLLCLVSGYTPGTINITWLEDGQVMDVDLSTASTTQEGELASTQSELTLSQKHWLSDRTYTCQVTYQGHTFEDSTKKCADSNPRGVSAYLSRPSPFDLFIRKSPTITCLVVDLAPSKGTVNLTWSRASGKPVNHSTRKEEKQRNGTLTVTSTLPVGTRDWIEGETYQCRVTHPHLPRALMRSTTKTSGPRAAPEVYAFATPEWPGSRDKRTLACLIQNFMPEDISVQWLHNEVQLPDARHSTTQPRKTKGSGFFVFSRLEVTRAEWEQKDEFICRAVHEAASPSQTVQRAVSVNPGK
# experiment: cell-based or functional assay
measured_parameter: block of degranulation at 500 nM Nanobody

>  <binder>
Nanobody 39D8 (VHH, also called 39D08; not shown: C-terminal c-myc tag and His6 tag) VHH: EVQLVESGGGLVQPGGSLRLSCAASGFTFGSYDMSWVRQAPGKGPEWVSSIDTGGDITHYADSVKGRFTISRDNANNMLYLQMNSLKPGDTAVYWCATDEDYALGPNEYDYYGQGTQVTVSS

>  <measured_value>
> 95%

$$$$
>  <binder>
Nanobody 39B2 (VHH, also called 39B02; not shown: C-terminal c-myc tag and His6 tag) VHH: EVQLVESGGGLVQPGGSLRLSCAASGFTFGSYDMSWVRQAPGKGPEWVSAINSGGGSTYYADSVKGRFTISRDNAKNTLYLQMNSLKPEDTAVYYCSTDLGPWIEGTMEEYEYEYWGQGTQVTVSS

>  <measured_value>
25%

$$$$
>  <binder>
Nanobody 36G5 (VHH, not shown: C-terminal c-myc tag and His6 tag) VHH: EVQLVESGGGLVQPGGSLRLSCVASGFTFGSYDMSWVRQAPGKRPEWVSAINSGGGSTYYADSVKGRFTISRDNAKNTLYLQMNSLKPEDTAVYYCATDEDYALGPNEYDYYGQGTQVTVSS

>  <measured_value>
> 95%

$$$$
>  <binder>
Nanobody 39D11 (VHH, not shown: C-terminal c-myc tag and His6 tag) VHH: EVQLVESGGGLVQPGGSLRLSCAASGFTFGSYDMSWVRQAPGKGPEWVSSIDTGGDITHYADSVKGRFTISRDNANNMLYLQMNSLKPEDTAVYWCATDEDYALGPNEYDYYGQGTQVTVSS

>  <measured_value>
> 95%

$$$$
